Each recorded value in this set is attributed to ChEMBL document CHEMBL3885861.

- Species on record: Rattus norvegicus
- Protocol summary: Open TG-GATES - Regimen: Daily Repeat
- Type: toxicity, organism-based, Sprague-Dawley
- Parameters: regimen Daily Repeat, gender Male, age 6 weeks
- Test context: in vivo, po, 0 mg/kg, […], tissue Plasma, route gavage, dose level Control, time 7 day
# key: entry, value: TP
Reported endpoint: TP (g/dL)

Compound	Endpoint value
C=CCO [ALLYL ALCOHOL]	5.6
COc1ccc(Cl)cc1C(=O)NCCc1ccc(S(=O)(=O)NC(=O)NC2CCCCC2)cc1 [GLYBURIDE]	5.5
Cc1cccc(Nc2cc(Cl)nc(SCC(=O)O)n2)c1C [PIRINIXIC ACID]	5.9
Cc1cnc(NC(=O)C2=C(O)c3ccccc3S(=O)(=O)N2C)s1 [MELOXICAM]	5.7
O=P1(N(CCCl)CCCl)NCCCO1 (stereo unspecified) [CYCLOPHOSPHAMIDE ANHYDROUS]	5.4
Cn1c(=O)c2c(ncn2C)n(C)c1=O [CAFFEINE]	5.5
Cn1cnc([N+](=O)[O-])c1Sc1ncnc2nc[nH]c12 [AZATHIOPRINE]	5.5
O=C1NC(=O)C(c2ccccc2)(c2ccccc2)N1 [PHENYTOIN]	5.6
O=C1CN(/N=C/c2ccc(-c3ccc([N+](=O)[O-])cc3)o2)C(O)=N1 [DANTROLENE]	5.8
CS(=O)(=O)Nc1ccc([N+](=O)[O-])cc1Oc1ccccc1 [NIMESULIDE]	5.7
COc1ccc(O)c(C(C)(C)C)c1.COc1ccc(O)cc1C(C)(C)C [BUTYLATED HYDROXYANISOLE]	5.9

---

- Organism: Rattus norvegicus
- Protocol summary: Open TG-GATES - Regimen: Single
- Type: toxicity, organism-based, Sprague-Dawley
- Parameters: regimen Single, gender Male, age 6 weeks
- Test context: in vivo, po, 0 mg/kg, 3 h, tissue Blood, route gavage, dose level Control
# key: entry, value: APTT
Reported endpoint: APTT (s)

Molecule	Reported endpoint	Result units	Endpoint value
S=C=Nc1cccc2ccccc12 [1-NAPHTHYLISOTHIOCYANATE]	APTT	s	18.6
Cn1cnc([N+](=O)[O-])c1Sc1ncnc2nc[nH]c12 [AZATHIOPRINE]	APTT	s	23.1
Cc1cccc(Nc2cc(Cl)nc(SCC(=O)O)n2)c1C [PIRINIXIC ACID]	APTT	s	15.1
O=C1NC(=O)C(c2ccccc2)(c2ccccc2)N1 [PHENYTOIN]	APTT	s	16.8
COc1ccc(Cl)cc1C(=O)NCCc1ccc(S(=O)(=O)NC(=O)NC2CCCCC2)cc1 [GLYBURIDE]	APTT	s	19.2
O=C1CN(/N=C/c2ccc(-c3ccc([N+](=O)[O-])cc3)o2)C(O)=N1 [DANTROLENE]	APTT	s	16.2
Cc1cnc(NC(=O)C2=C(O)c3ccccc3S(=O)(=O)N2C)s1 [MELOXICAM]	APTT	s	17.9
C=CCO [ALLYL ALCOHOL]	APTT	s	19.5
CS(=O)(=O)Nc1ccc([N+](=O)[O-])cc1Oc1ccccc1 [NIMESULIDE]	APTT	s	17.1
COc1ccc(O)c(C(C)(C)C)c1.COc1ccc(O)cc1C(C)(C)C [BUTYLATED HYDROXYANISOLE]	APTT	s	13.3

---

- Species: Rattus norvegicus
- Protocol summary: Open TG-GATES - Regimen: Single
- Format: toxicity, organism-based, Sprague-Dawley
- Set-up: regimen Single, gender Male, age 6 weeks
- Test context: in vivo, po, 0 mg/kg, 24 h, tissue Blood, route gavage, dose level Control
Reported endpoint: Neu (%)

Compound	Result units	Endpoint value
S=C=Nc1cccc2ccccc12 [1-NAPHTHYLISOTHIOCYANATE]	%	13.6
Cc1cnc(NC(=O)C2=C(O)c3ccccc3S(=O)(=O)N2C)s1	%	16.4
C=CCO	%	17.2
Cn1cnc([N+](=O)[O-])c1Sc1ncnc2nc[nH]c12	%	18.6
CS(=O)(=O)Nc1ccc([N+](=O)[O-])cc1Oc1ccccc1 [NIMESULIDE]	%	16.6
